These data points were gathered from patent EP1709964A2.

- Measured on: Human tyrosinase (Homo sapiens)
- Construct: Normal human melanocytes (originating from abdominal plasty) are sown in a 24-well plate; endogenous in cells; host or cells: normal human melanocytes from abdominal plasty; donors of light, brown and black phototype
- Sequence (P14679 19-529): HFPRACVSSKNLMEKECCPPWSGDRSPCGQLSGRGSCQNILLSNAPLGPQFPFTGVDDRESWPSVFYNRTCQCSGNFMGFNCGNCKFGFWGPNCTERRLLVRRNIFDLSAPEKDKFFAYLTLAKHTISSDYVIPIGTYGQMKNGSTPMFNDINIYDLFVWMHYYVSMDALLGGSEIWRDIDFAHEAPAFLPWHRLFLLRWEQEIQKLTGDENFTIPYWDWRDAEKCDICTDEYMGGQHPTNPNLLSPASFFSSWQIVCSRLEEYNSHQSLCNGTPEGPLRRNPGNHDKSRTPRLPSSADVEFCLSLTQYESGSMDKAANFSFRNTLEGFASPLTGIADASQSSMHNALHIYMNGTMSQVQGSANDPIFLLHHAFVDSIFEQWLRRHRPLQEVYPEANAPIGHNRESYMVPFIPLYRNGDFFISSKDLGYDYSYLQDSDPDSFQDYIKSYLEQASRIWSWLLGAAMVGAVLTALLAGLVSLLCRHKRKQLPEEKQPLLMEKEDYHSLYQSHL
- Test name: Inhibition of human tyrosinase in a monolayer after 24 h application of the actives on normal human melanocytes (MBTH/L-Dopa, OD 490 nm/protein)
- Assay type: cell-based
- Test settings: 10^-4M; 24 hours; read-out: Inhibition of human tyrosinase after application on normal human melanocytes, percentage inhibition
- Method: Normal human melanocytes (originating from abdominal plasty) are sown in a 24-well plate at the rate of 80,000 cells per well. They are cultivated up to confluence and the actives are applied for 24 hours in the culture media. After 24 hours, the media are removed and the melanocytes are picked up by mechanical action. An extraction is made by heat shock and the supernatants are then recovered and then incubated with MBTH (Sigma) and L-Dopa (Sigma). […]
Value type: inhibition at 100 µM (%)

Known inhibition at 100 µM results, listed for orientation:
{"Input smiles": "Cc1cc(C)c(/C=C2\\Oc3cc(O)cc(O)c3C2=O)[nH]1", "Measurement unit": "%", "inhibition at 100 µM": 26.4}
{"Input smiles": "CCc1ccc(/C=C2\\Oc3cc(O)cc(O)c3C2=O)o1", "Measurement unit": "%", "inhibition at 100 µM": 28.5}
{"Input smiles": "O=C1/C(=C/c2ccc(S(=O)(=O)O)cc2)Oc2cc(O)cc(O)c21", "Measurement unit": "%", "inhibition at 100 µM": 0}
{"Input smiles": "CC(C)(C)c1ccc(/C=C2\\Oc3cc(O)cc(O)c3C2=O)cc1", "Measurement unit": "%", "inhibition at 100 µM": 0}

A: Cc1ccc(/C=C2\Oc3cc(O)cc(O)c3C2=O)s1
B: COc1cc(OC)c2c(c1)O/C(=C\c1ccccc1)C2=O
C: CCc1ccc(/C=C2\Oc3cc(OC)cc(OC)c3C2=O)o1
D: O=C1/C(=C/c2ccco2)Oc2cc(O)cc(O)c21
# rank by inhibition at 100 µM, ascending (min first) I'd appreciate it if you listed the labels in the requested order.
B, C, A, D

A: COc1cc(OC)c2c(c1)O/C(=C\c1cc(C)c(C)o1)C2=O
B: COc1cc(/C=C2\Oc3cc(O)cc(O)c3C2=O)ccc1O
Name the one with the greater inhibition at 100 µM value, either A or B as given. Lab note: record the label of whichever item you select.
A
